Test system: MS2 coat protein
Test: apparent KD of MS2 coat protein; designed switch direction (-1 OFF switch, 1 ON switch): -1; higher = weaker reporter binding
Settings: Eterna round: R95; input ligand: FMN 200 uM
Each item that follows carries a reported apparent KD of MS2 coat protein.
value kind: apparent KD of MS2 coat protein (nM)

>>> recorded_measurement("GCAGGAUAAGUGAGGAUAUACCUAUGGAUACAUAGGUAGAAGGCACAUGAGGAUCACCCAUGUUCCUUACCUGC [Fiskers BMX 4 - 66] (puzzle: Brourd's mod of Exclusion 4)")
42
>>> recorded_measurement("UUUAAUUUUUUUUUUUUACAAGCUUUUUGCUCGUCUUAUACAUGAGGAUCACCCAUGUAGGUGGGAAGUAAAUUAUC [JMF 57] (puzzle: Sensor v3, turn-off variant 2)")
33
>>> recorded_measurement("UCAUGGAAGCAGGAUAUGCUUGUUUAAUUGUUUGCAGAAGGGCUAACAUGAGGAUCACCCAUGUGAGAGGUCUA [JR_E6_Sub064] (puzzle: Exclusion 6)")
20.5

Just for reference, the supplement of paper PMC9170038 is where these values come from.
